molecular target: GABA transporter 4 (Mus musculus) (UniProt P31650); test: Inhibition of mouse GAT4 expressed in HEK293 cells assessed as remaining [3H]GABA uptake at 100 uM preincubated for 25 mins followed by [3H]GABA/unlabeled GABA addition measured after 4 mins by liquid scintillation counting analysis; format: cell-based
Sequence (P31650 whole entry): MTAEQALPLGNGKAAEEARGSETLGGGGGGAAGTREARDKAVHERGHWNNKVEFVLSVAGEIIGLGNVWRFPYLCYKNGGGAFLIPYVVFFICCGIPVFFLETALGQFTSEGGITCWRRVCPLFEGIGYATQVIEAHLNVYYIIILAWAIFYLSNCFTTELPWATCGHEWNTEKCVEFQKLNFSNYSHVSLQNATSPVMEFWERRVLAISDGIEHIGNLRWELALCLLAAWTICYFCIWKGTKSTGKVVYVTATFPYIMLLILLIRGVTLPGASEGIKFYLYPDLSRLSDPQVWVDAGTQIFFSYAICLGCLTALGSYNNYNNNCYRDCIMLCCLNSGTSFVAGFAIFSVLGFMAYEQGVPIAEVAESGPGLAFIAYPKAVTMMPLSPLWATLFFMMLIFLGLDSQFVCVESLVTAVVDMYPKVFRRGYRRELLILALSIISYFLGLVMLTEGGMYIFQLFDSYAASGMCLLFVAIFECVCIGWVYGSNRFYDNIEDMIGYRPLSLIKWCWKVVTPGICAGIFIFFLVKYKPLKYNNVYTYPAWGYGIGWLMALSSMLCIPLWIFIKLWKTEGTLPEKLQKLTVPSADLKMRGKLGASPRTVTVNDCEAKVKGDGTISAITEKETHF
endpoint_name: Activity (%)

Examples from the recorded data:
>>> recorded_measurement("O=C(O)[C@H]1CNCC[C@@H]1CC/C=C/c1ccccc1Cc1ccccc1 (racemic)")
92.4
>>> recorded_measurement("O=C(O)[C@H]1CNCC[C@H]1CC/C=C/c1ccccc1Cc1ccccc1 (racemic)")
49.7

a: CN1CC[C@H](CCC#Cc2ccccc2-c2ccccc2)[C@@H](C(=O)O)C1 (racemic)
b: CN1CC[C@H](CCCC#Cc2ccccc2Cc2ccccc2)[C@@H](C(=O)O)C1 (racemic)
Problem: Given the entries a and b , determine which has the lower reported Activity. Give the label of your selection.
b
(b: 50%, a: 81.1%)

a: CN1CC[C@H](CCC/C=C/c2ccccc2-c2ccccc2)[C@@H](C(=O)O)C1 (racemic)
b: O=C(O)[C@H]1CNCC[C@H]1CCC#Cc1ccccc1-c1ccccc1 (racemic)
Pick one: a or b . Which has the bigger Activity number? Give the label of your selection.
b
